- ASSAY SUMMARY: yeast display, Sf9 membrane polyspecificity reagent, FACS + sequencing; frameworks hold sequencing errors

{"SEQUENCE TEXT": "QVQLVESGGRLVQAGGSLRLSCAASGRIFAAYAMGWYRQAPGKEREFVAGITRTGGSTYYADSVKGRFTISRDHAKNTVYFQMNSLKPEDTAVYYCAASLVYYGHAYNYWGQGTQVTVSS", "polyreactivity (PSR sort gate)": "high polyreactivity"}
{"SEQUENCE TEXT": "QVQLVESGVGLVQAGGSLRLICAASGGTFEFYTMGRYRQAPGKERELVAVINASGDSTYYADSVKGRFTISRDNAKNTVYLQMNSLKPEDTAVYYCAADHRGEYDYWGQGTQVTGSS", "polyreactivity (PSR sort gate)": "low polyreactivity"}
{"SEQUENCE TEXT": "QVQLVESGGGLVQAGGSLRLSCAASGSISYYNAMGWYRQAPGKERELVAAITYSAGGTYYADSVKGRFTISRDNAKNTVYLQMNSLKPEDTAVYYCAADAYKHVAYGGVYWYYYWGLGTQVTVSS", "polyreactivity (PSR sort gate)": "high polyreactivity"}
{"SEQUENCE TEXT": "QVQLVESGGGLVQAGGSLRLSCAASGRIFSYYAMGWYRQAPGKERELVASITSGGSTYADSVKGRFTISRDNAKNTVYLQMNSLKPEDTAVYYCNARKRHYYGYYYWGQGTQVTVSS", "polyreactivity (PSR sort gate)": "high polyreactivity"}
{"SEQUENCE TEXT": "QVQLVESGGGLVQAGGSLRLSCAASGSIFSTNDRGWYRQAPGKERELVAAISVSGGSTYYADSVKGRFTISRDNAKNTVYLQMNSLKPEDTAVYYCNADYTRGTMYYWGQGTQVTVSS", "polyreactivity (PSR sort gate)": "low polyreactivity"}
{"SEQUENCE TEXT": "QVQLVESGGGLVQAGGSLRLSCAASGFTITYNAMGWYRKAPGKEREFVAAITNNGSTYYADSVKGRFTISRDNAKNTVYLQMNSLKPEDTAVYFCAVDPGYYDEYNYWGQGTQVTVSS", "polyreactivity (PSR sort gate)": "low polyreactivity"}
{"SEQUENCE TEXT": "QVQLVESGGGLVQAGGSLRLSCAASGFTFATYAMGWYRQAPGKERELVAAITSGDRTKYADSVKGRFTISRDNAKNTVYLQMNSLKPEDTAVYYCAATTYKVSTGYGYWGQGTQVTVSS", "polyreactivity (PSR sort gate)": "high polyreactivity"}
{"SEQUENCE TEXT": "QVQLVESGGGLVQAVGTLRLSCAASGSIFGYNAMGWYRHAPAKEREFVAAIRWSSGSTYYADSVKGRFTISRDNAMNTVFLQMNSLKPEDTAVNYCATRQTYLYWGQGTQVTVSS", "polyreactivity (PSR sort gate)": "high polyreactivity"}
{"SEQUENCE TEXT": "QVQLVESGGGLVQAGGSLRLSCAASGFTFSRNTMGWYRQAPGKERELVARISASGGSTYYADSVKGRFTISRDNAKNTVYLQMNSLKPEDTAVYYCAAVYRRYGGSRYDYWGQGTQVTVSS", "polyreactivity (PSR sort gate)": "high polyreactivity"}
{"SEQUENCE TEXT": "QVQLEESGGGLVQAGGSLRLSCAASGGTFAQYVMGWYRQAPGKERELVAAISRTGGRTYYADSVKGRFTISRDNAKNTVYLQMNSLKPEDTAVYYCARVYTSYGTPWTNYDYWGQGTQVTVSS", "polyreactivity (PSR sort gate)": "high polyreactivity"}
{"SEQUENCE TEXT": "QVQLVESGGGLVQAGGSLRLSCAASGSIFRINAMGWYRPAPGKEREFVAAIRGSGGRTYYAESVKGRFTISRDNAKNTVYLQMNSLKPEDTAVYYCAADFSYRYFQRTSWPFDYWGQGTQVTVSS", "polyreactivity (PSR sort gate)": "high polyreactivity"}
{"SEQUENCE TEXT": "QVQLVESGGGLVQAGGSLRLSCAASGSTYYNALGWYRPAPGKERELVAAIRFRSGSTYYADSVKGRFTISRDNAKNTDYVQMNSLKPEDTAVYYCAADNKRSWRYAYNYWGQGTQVTVSS", "polyreactivity (PSR sort gate)": "high polyreactivity"}
{"SEQUENCE TEXT": "QVQLVESGGGLVQAGGSLRLSCAASGRIFVVYAMGWYRQAPGKERELVATITSGGSTYYADSVKGRFTISRDNAKNTVYLQMNSLKPEDTAVYYCAAYAYIFLDWGGYPYYLYEYDYWGQGTQVTVSS", "polyreactivity (PSR sort gate)": "low polyreactivity"}
{"SEQUENCE TEXT": "QVQLVESGGGLVQAGGSLRLSCAASGFTFDDYVMGWYRQAPGKERELVAAISRSGGSTYYADSVKGRFTISRDNAKNTVYLQMNSLKPEDTAVYYCAARTYSWGDWGQGTQVTVSS", "polyreactivity (PSR sort gate)": "high polyreactivity"}
{"SEQUENCE TEXT": "QDQLEESGGGLVQEGGSLRIICDAYRSTFYANTMGWYRQSTGKERELVATISIDGSTNYADSVKGRFTFSRDYAKNTVYLQMNSLKPEDTAVYYCNADVYSVLYGYWGQGTQVSVSS", "polyreactivity (PSR sort gate)": "low polyreactivity"}
{"SEQUENCE TEXT": "QVQLVQSGGGLVQAGGSLRLSCAASGSIFDYNTMGWYRQAPGKERELVATISWSGDSTYYADSVKGRFTISRDNAKNTVYLQMNSLKPEDTAVYYCNADDPPGAPYYDSFDYRGDYWGQGTQVTVSS", "polyreactivity (PSR sort gate)": "low polyreactivity"}
{"SEQUENCE TEXT": "QVQLVESGGCLVQAGGSLRLSCAASGRIFRTYTMGWYRQAPGKERELVAAITWNGGSTYYADSVKGRFTISRDNAKNTVYLQMNSLKPEDTAVYYCIADRHYSAYPLYDYWGQGTQVTVSS", "polyreactivity (PSR sort gate)": "low polyreactivity"}
{"SEQUENCE TEXT": "QVQLVESGGGLVQAGGMLRLSCAASGRIFGVNAMGWYRQAPGKERELVAVISSGGSTYYADSVKGRFTISRDNAKNTVYVQMNSLKPEDTAVYYCNAVVGRWFPYNLSDYWGQGTQVTVSS", "polyreactivity (PSR sort gate)": "low polyreactivity"}
{"SEQUENCE TEXT": "QVQLVESGGGLVQAGGSLRLSCAASGSIFRWYAMGWSRQAPGKERQLVAAIRGNGASTYYADSVKGRFTISRDNAKNTVYLQMNSLKPEDTAVYYCAAYPSFYHSQYGYWGQGTQVTVSS", "polyreactivity (PSR sort gate)": "high polyreactivity"}
{"SEQUENCE TEXT": "QVQLVESGGGLVQAGGSLRLSCAASGFTFDLYAMGWYRQAPGKERELVAAISWSGGSTRYADSVKGRFTISRDNAKNTVYLQMNSLKPEDTAVYYCARQPRLYFKGKLYGYWGQGTQVTVSS", "polyreactivity (PSR sort gate)": "high polyreactivity"}
{"SEQUENCE TEXT": "QVQLVESGGGLVKAGGSLRLSCAASGFIFLQYVMGSYRQAPVKERELVAAITSGGSTYYADSVKARFTISRDNAKNTVYLQMNSLKPEDTAVYFCATDVADNTFDALYGSDYWGQCTQVTVSS", "polyreactivity (PSR sort gate)": "low polyreactivity"}

###

- ASSAY SUMMARY: yeast display, Sf9 membrane polyspecificity reagent, FACS + sequencing; frameworks hold sequencing errors
PROPERTY: polyreactivity (PSR sort gate)

{"SEQUENCE TEXT": "PVQLVESGGGLVQAGGSLRLSCAASGSTFRRNVMGWYRQAPGKEREFVAAISYRTGSTYYADSVKGRFTISRDNAKNTVYLQMNSLKPEDTAVYYCAASSQWVGYYYWGQGTQVTVSS", "RESULT": "high polyreactivity"}
{"SEQUENCE TEXT": "QVQLVESWGGLVQAGGSLRLSCAASGRTFYSNAMGWYRQARGNERELVAAISRSGGTTYYADSVKGRFTISRDNAKNTVYLLMNSLKPEDTAVYYCNTLRYGTTGKYDYWGQGTQVTVSS", "RESULT": "high polyreactivity"}

###

- ASSAY SUMMARY: yeast display, Sf9 membrane polyspecificity reagent, FACS + sequencing; frameworks hold sequencing errors
PROPERTY: polyreactivity (PSR sort gate)

{"SEQUENCE TEXT": "QVQLVESGGGLVQAGGSLRISCAASGLTIVPNAMGWYRQAPGKERELVAAISNNGGRTYYADSVKGRFTISRDNAKNTVYLQMNSLKPEDTAVYYCAKYLSPGERHSYDYWGQGTQVTVSS", "RESULT": "high polyreactivity"}
{"SEQUENCE TEXT": "QVQLVESGGGLVQAGGSLRLSCAASGRIFGYNAMGWYRQAPGKERELVDAITTSGGSTYYADSVKGRFTISRDNAKNTVYLQMNSLKPEDTAVYYCARDSLQVFYPYASDDYWGQGTQVTVSS", "RESULT": "low polyreactivity"}
{"SEQUENCE TEXT": "QVQLVQSRGGLVQAGGSLRLSCSASGFIFIYNVMGWYRQAPGKERDMVAAINRGGSTKYADSVKGRFTISRDNAKITVYLQMNSLKPEDSAVYYCAARYDGSRYHYDGYDYWGQGTQVTVSS", "RESULT": "low polyreactivity"}
{"SEQUENCE TEXT": "QVQLVESGGGLVQAGGSLRLSCAASGSILPGNAMGWYRQAPGKEREFVAAISKSGGRTNYADSVKGRFTISRDNAKNTVYLQMNSLKPEDTAVYYCAARRSTGYGKSNLYNYWGQGTQVTVSS", "RESULT": "high polyreactivity"}
{"SEQUENCE TEXT": "QVQLLESGGGLVQAGGSLRLSCAASGRTFQRNAMGWYRQAPGKETELVATITTNGGSTYYADSVKGRFTISRDNAKNTVYLQMNSLKPEDTAVYYCAAPFNPRVRTLRSVRMDYWGQGTQVTVSS", "RESULT": "low polyreactivity"}

Cited source: the nanobody polyreactivity screen of Harvey et al. (2022)
